biological target: Human HER3, endogenous, on human cancer cell lines (SK-Br-3, MCF7, BT-474) (human, UniProt P21860 20-1342); experiment: cell-based or functional assay
Sequence (P21860 20-1342): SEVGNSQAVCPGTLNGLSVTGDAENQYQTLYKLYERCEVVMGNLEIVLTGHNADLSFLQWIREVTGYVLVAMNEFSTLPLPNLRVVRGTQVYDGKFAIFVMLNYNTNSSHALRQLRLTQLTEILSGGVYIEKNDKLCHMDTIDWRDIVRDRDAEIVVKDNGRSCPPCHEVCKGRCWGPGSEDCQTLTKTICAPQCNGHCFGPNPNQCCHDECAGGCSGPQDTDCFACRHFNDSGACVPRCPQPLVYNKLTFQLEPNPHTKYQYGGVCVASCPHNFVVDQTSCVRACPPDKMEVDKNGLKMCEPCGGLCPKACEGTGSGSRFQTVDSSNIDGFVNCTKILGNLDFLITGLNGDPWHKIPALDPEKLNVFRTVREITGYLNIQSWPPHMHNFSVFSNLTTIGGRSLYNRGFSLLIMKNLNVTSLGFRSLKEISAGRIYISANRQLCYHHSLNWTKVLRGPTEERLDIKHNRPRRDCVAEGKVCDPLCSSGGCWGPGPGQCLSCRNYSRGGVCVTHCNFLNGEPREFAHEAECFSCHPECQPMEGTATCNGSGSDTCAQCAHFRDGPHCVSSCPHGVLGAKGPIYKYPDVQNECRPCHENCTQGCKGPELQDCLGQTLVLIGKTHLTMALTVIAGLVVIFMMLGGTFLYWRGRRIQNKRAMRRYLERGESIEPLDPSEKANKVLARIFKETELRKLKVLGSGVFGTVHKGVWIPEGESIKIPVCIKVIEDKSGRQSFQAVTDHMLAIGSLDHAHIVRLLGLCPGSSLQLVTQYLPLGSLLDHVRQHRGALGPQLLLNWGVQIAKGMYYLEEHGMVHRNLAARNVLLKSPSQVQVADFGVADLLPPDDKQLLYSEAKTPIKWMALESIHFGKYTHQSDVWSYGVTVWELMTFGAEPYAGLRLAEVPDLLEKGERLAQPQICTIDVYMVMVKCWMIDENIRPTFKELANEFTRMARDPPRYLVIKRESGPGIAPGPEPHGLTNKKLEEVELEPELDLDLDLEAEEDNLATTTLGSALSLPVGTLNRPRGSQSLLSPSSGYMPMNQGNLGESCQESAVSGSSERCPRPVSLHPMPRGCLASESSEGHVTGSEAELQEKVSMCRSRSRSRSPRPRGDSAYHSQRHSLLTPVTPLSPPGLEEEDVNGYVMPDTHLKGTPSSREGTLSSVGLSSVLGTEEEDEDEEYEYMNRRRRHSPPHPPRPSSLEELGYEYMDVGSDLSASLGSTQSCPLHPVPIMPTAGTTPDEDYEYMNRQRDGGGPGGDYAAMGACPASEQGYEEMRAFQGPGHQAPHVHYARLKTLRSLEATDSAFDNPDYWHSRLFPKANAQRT
ASSAY READOUT: BT474 pHER3 % inhibition (%)
Expressed in %, but write only the number.

BINDER	BT474 pHER3 % inhibition (%)
MOR13759 (antibody, human IgG1, kappa, V domains shown, tested as IgG) VH: QVQLVQSGAEVKKPGESLKISCKGSGYSFTTTWVAWVRQMPGKGLEWMGIIYPGLSDTIYSPSFQGQVTISADKSISTAYLQWSSLKASDTAMYYCARVHIIQPPSAWSYNAMDVWGQGTLVTVSS VL: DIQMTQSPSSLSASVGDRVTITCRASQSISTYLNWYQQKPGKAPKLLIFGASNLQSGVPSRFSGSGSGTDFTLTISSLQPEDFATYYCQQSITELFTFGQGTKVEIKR	70

Consider the record given below.
*Q* What value of measured BT474 pHER3 % inhibition is listed for MOR13758 (antibody, human IgG1, kappa, V domains shown, tested as IgG) VH: QVQLVQSGAEVKKPGESLKISCKGSGYSFTLYWVAWVRQMPGKGLEWMGIIYPGQSDTIYSPSFQGQVTISADKSISTAYLQWSSLKASDTAMYYCARVHIIQPPSAWSYNAMDVWGQGTLVTVSS VL: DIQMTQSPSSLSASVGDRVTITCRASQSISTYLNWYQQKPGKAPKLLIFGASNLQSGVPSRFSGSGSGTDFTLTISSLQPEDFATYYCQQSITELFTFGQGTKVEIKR ?
*A* 67
